Target: human monocyte chemo-attractant protein-1 (MCP-1) (human, UniProt P13500 24-99)
Sequence (P13500 24-99): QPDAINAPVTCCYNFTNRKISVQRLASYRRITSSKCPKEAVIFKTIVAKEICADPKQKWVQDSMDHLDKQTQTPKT
Assay: cell-based or functional assay
PROPERTY: IC50 Ca++ Flux
A bare number is not enough; add the unit after it.

anti-MCP-1 mAb 3.16.1 (antibody, V domains shown) VH: QVQLVQSGAEVKKPGASVKVSCKVSGYTLTDLSMHWVRQAPGKGLEWMGGFDPEDGETIYAQKFQGRVTMTEDTSSDTAYMELSSLRSEDTAVYYCATHEFWSGYFDYWGQGTLVTVSS VL: DIVMTQSPDSLAVSLGERATINCKSSQSVLFSSNNKSYLTWYQQKPGQPPKLLIFWASIRESGVPDRISGSGSGTDLTLTISSLQAEDAAVYYCQQYYSSPWTFGQGTKVEIKR; 0.16 µg/mL

In the following, a different binder is considered.
Tell me the measured IC50 Ca++ Flux of anti-MCP-1 mAb 2.4.1 (antibody, V domains shown) VH: QVQLVQSGAEVKKPGASVKVSCKASGYTFTGYYLHWVRQAPGQGLEWMGWINPYNDGTNYAQKFQGRVTMTRDTSISTAYMELSRLRSDDTAVYYCARDIAAAGAVYFDYWGQGTLVTVSS VL: DIQMTQSPSSLSASVGDRVTITCQASQDITTYLNWYQQKPGKAPKLLIYDASNLETGVPSRFSGSGSGTDFTFTISSLQPEDIATYYCQQYDNLPITFGQGTRLEIKR , please.
0.26 µg/mL
